Tested on: ACHN renal
assayProcedure: NCI-60 one-dose screen, 48 h (100 = growth as untreated, 0 = no growth, -100 = all killed)
assayConditions: 10 µM unless noted
About 83,000 compounds went through this panel and 20% of them were active in at least one assay; those are over-represented in the sample as a whole.
Quick reference: growth of the listed items.

# compound, testTarget, growth / %
rows = [
    ("COC1=C[C@]23CCC(=O)N2CCc2cc4c(cc2[C@@H]3[C@@H]1OC(=O)[C@H](C)O)OCO4", "ACHN renal", 5.84),
    ("O=C(O)c1ccc(-c2ccc(/C=N/NC(=O)c3[nH]c4ccc(Br)cc4c3-c3ccccc3)o2)cc1", "ACHN renal", 32.5),
    ("COc1ccc([C@H](C)Nc2nc(Cl)nc3ccccc23)cc1", "ACHN renal", 54.3),
    ("Cc1cccc(-c2nc(Nc3ccc(C)c(S(N)(=O)=O)c3)c3ccccc3n2)c1", "ACHN renal", 15.3),
    ("C=C1CC[C@@H]2[C@]3(C)COC(c4ccccc4)O[C@@H]3CC[C@@]2(C)[C@@H]1C/C=C1/C(=O)OCC1OC(C)=O (stereo partly drawn)", "ACHN renal", -100),
    ("COc1ccc(C2CC(c3ccc(S(=O)(=O)NCCNc4nc(Nc5ccc(F)cc5)nc(N(C)C)n4)cc3)=Nc3c(N)nc(N)nc3N2)cc1 (stereo not drawn)", "ACHN renal", 92.7),
    ("CCCSc1nc(NCCc2c[nH]c3ccccc23)c(C#N)c(-c2ccccc2)n1", "ACHN renal", 78.2),
    ("Cc1ccc([C@H]2C(C(=O)c3ccc(Cl)cc3)C3(N[C@@H]2c2ccccc2)C(=O)Nc2ccc(Cl)cc23)cc1 (stereo partly drawn)", "ACHN renal", 38.7),
    ("COc1cc(C2CC(c3cc(OC)c(OC)c(OC)c3)=Nc3c(N)nc(N)nc3N2)ccc1Oc1nc(NCCO)nc(N2CCOCC2)n1 (stereo not drawn)", "ACHN renal", 101),
    ("CC(C)c1sc(NC(=O)c2cc(NC(=O)c3cc(NC(=O)c4nccn4C)cn3C)cn2C)nc1C(=O)NCCCN(C)C", "ACHN renal", 108),
    ("CC(=O)Nc1cccc(Nc2nc(N[C@H]3CCCc4ccccc43)c3ccccc3n2)c1", "ACHN renal", 102),
    ("COc1cc2c(c(OC)c1OC)C(=O)CC(c1cccc(NC(=O)c3cc(N)ccc3Cl)c1)O2 (stereo not drawn)", "ACHN renal", 50.6),
    ("Nc1nnc(-c2c[nH]c3ncc(Br)cc23)c(-c2c[nH]c3ccc(F)cc23)n1", "ACHN renal", 40.8),
    ("C=C1CCC2C3(C)COC(c4ccc(F)cc4)OC3CCC2(C)C1C/C=C1/C(=O)OCC1O (stereo not drawn)", "ACHN renal", -97.6),
    ("Cc1cc2nc3c4ccccc4n(CCCN(C)C)c3nc2cc1C", "ACHN renal", 4.95),
    ("COc1cc2c(c(OC)c1OC)C(=O)CC(c1cccc(NC(=O)c3cc(NC(=O)[C@H](C)N)ccc3Cl)c1)O2 (stereo partly drawn)", "ACHN renal", 50.4),
    ("CN(C)c1ccnc(CNCCSC2(c3ccc(C(F)(F)F)cc3)c3ccccc3CCc3ccccc32)c1", "ACHN renal", -12.1),
    ("N/N=C(\\N)c1c(N)nc(=S)[nH]c1-c1ccc(Cl)cc1Cl", "ACHN renal", 107),
]
